Molecular target: DNA gyrase (Staphylococcus aureus, UniProt P0A0K8+P20831)
Construct: with DNA gyrase subunit B (GyrB); plasmid DNA
Sequence (P0A0K8 2-644): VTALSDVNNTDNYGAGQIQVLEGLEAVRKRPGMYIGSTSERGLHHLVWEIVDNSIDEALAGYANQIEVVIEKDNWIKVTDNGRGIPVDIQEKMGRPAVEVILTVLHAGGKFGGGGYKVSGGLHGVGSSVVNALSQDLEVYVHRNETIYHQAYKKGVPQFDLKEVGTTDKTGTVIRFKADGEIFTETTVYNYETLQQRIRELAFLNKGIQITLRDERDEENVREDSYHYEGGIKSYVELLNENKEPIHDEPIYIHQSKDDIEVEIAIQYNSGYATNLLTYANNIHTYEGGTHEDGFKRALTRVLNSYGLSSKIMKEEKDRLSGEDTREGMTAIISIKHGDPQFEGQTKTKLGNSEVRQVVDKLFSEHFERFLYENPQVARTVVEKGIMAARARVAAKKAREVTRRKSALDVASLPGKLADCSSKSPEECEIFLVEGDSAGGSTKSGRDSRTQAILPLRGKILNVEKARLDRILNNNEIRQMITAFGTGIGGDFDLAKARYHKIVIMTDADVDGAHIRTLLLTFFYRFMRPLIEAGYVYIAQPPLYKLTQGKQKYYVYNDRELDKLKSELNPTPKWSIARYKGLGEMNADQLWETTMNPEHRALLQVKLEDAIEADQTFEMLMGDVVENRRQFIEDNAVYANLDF
Sequence (P20831 whole entry): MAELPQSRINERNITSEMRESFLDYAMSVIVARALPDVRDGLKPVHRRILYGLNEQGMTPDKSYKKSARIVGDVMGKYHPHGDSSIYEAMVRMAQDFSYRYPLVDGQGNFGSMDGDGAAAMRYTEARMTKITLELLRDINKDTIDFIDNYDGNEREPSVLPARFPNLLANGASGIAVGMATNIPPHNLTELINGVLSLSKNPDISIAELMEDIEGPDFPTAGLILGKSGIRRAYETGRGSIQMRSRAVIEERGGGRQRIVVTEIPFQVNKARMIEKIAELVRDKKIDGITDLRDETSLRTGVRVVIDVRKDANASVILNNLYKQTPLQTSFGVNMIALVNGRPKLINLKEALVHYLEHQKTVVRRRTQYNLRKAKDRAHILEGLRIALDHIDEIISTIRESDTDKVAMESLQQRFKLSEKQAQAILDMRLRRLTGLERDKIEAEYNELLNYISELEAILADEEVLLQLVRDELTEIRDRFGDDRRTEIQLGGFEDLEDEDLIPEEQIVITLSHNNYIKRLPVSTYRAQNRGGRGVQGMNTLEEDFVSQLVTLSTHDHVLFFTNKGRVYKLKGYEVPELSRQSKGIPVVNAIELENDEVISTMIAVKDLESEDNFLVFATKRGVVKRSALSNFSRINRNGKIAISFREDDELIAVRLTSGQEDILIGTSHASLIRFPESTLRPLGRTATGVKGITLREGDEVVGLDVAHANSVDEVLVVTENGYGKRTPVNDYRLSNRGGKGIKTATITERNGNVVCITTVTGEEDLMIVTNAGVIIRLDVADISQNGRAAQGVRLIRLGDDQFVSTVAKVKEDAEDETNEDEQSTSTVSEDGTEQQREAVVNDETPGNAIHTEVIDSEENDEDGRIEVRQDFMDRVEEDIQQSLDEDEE
Test: S. aureus gyrase supercoiling assay, relaxed pBR322, agarose gel
pIC50: −log10 of the molar value.

chemical structure	pIC50
O=C(CN1CCN(c2cc3c(cc2F)c(=O)c(C(=O)O)cn3C2CC2)CC1)Nc1ccc(Cl)cc1	4.87

---

Target: Topoisomerase IV (Staphylococcus aureus, UniProt P0C1S7+Q2FYS4)
Construct: with Topoisomerase IV subunit B (ParE); kDNA substrate
Sequence (Q2FYS4 whole entry): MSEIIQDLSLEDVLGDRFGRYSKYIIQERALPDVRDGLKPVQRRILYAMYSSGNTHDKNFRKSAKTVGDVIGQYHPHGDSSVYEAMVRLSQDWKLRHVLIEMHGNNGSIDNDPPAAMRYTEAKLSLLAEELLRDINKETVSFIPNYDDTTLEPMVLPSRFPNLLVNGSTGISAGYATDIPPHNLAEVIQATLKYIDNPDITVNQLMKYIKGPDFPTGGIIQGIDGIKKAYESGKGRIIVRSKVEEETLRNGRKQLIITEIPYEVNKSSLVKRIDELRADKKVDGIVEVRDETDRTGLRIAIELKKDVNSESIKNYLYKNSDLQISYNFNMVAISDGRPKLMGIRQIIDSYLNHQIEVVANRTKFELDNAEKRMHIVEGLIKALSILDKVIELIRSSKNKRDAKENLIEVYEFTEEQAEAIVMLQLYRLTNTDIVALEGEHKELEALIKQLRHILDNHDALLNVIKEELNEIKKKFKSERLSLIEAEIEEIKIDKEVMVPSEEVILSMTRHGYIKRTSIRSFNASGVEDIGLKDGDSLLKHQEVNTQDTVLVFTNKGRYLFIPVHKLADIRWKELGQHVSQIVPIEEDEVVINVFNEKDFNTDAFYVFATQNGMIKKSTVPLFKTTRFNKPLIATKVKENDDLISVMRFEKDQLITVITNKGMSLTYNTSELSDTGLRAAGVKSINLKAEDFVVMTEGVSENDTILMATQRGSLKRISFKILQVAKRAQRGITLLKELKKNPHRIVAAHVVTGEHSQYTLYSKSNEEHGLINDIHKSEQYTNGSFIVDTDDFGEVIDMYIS
Sequence (P0C1S7 whole entry): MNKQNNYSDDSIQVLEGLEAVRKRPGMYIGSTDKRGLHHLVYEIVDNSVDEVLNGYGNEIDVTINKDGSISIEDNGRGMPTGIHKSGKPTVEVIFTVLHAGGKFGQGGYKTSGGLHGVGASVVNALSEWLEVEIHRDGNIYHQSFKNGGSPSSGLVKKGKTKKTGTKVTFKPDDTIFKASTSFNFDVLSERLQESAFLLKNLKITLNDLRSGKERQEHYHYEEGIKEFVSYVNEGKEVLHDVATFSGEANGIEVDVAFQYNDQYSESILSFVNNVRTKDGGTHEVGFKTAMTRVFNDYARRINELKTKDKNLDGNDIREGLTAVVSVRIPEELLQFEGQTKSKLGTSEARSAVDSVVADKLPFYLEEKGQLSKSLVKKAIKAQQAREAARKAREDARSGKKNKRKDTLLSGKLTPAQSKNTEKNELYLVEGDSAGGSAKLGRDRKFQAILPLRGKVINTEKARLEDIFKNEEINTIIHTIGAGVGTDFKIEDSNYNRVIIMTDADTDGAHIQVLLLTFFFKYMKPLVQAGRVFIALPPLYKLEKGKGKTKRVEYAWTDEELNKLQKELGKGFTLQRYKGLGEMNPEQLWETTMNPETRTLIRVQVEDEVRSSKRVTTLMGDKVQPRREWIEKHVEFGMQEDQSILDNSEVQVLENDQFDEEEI
Test: Topo IV kDNA decatenation assay, agarose gel

chemical structure	reading unit	IC50
O=C(CN1CCN(c2cc3c(cc2F)c(=O)c(C(=O)O)cn3C2CC2)CC1)Nc1ccc(Cl)cc1	µM	3.83
